# credit: PubChem BioAssay AID1963986

Tested on: 171881-019-R-J1-PDC tumor spheroid viability;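 note: spheroids exposed to compound for 7 days before viability read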
MEASUREMENT DESCRIPTION: Anticancer human tumor 171881-019-R-J1-PDC patient-derived invasive breast carcinoma cell line growth inhibition [PI3K]
RUN PARAMETERS: curve of first compound; second compound 1 µM; spheroids with HUVEC and MSC
pIC50: −log10 of the molar value.
PARAMETER MEASURED: pIC50

* CCN1CCN(Cc2ccc(Nc3ncc(F)c(-c4cc(F)c5nc(C)n(C(C)C)c5c4)n3)nc2)CC1 + Cc1nc(NC(=O)N2CCCC2C(N)=O)sc1-c1ccnc(C(C)(C)C(F)(F)F)c1 | > 8.50
* C[C@@H](NC(=O)c1ncnc(N)c1Cl)c1ncc(C(=O)Nc2cc(C(F)(F)F)c(Cl)cn2)s1 + COc1c(OCCCN2CCOCC2)ccc2c3n(c(=NC(=O)c4cnc(N)nc4)nc12)CCN3 | > 7.50

Answer briefly: pIC50 recorded on 171881-019-R-J1-PDC tumor spheroid viability for C=CC(=O)N1CCN(c2nc(=O)n(-c3c(C)ccnc3C(C)C)c3nc(-c4c(O)cccc4F)c(F)cc23)C(C)C1 (stereo not drawn) + Cc1nc(NC(=O)N2CCCC2C(N)=O)sc1-c1ccnc(C(C)(C)C(F)(F)F)c1 > 7.50

Answer briefly: pIC50 recorded on 171881-019-R-J1-PDC tumor spheroid viability for C#Cc1c(F)ccc2cc(O)cc(-c3ncc4c(N5CC6CCC(C5)N6)nc(OCC56CCCN5CC(F)C6)nc4c3F)c12 (stereo not drawn) + CC(Nc1ncnc2nc[nH]c12)c1cc2cccc(Cl)c2c(=O)n1-c1ccccc1 6.50

Answer briefly: pIC50 recorded on 171881-019-R-J1-PDC tumor spheroid viability for Cn1cnc2c(F)c(Nc3ccc(Br)cc3Cl)c(C(=O)NOCCO)cc21 + CC(Nc1ccc2c(c1)OCCn1cc(N3C(=O)OCC3C(F)F)nc1-2)C(N)=O > 8.02

Answer briefly: pIC50 recorded on 171881-019-R-J1-PDC tumor spheroid viability for CC1(C)CCC(Nc2ncc(C(F)(F)F)c(-c3c[nH]c4c(P(C)(C)=O)c(C#N)ccc34)n2)CN1 (stereo not drawn) + Cc1nc(NC(=O)N2CCCC2C(N)=O)sc1-c1ccnc(C(C)(C)C(F)(F)F)c1 > 7.50
